# tested target: CXCR4 E288A (human, UniProt P61073-1 1-352, E288 to Ala)
# Sequence (P61073 whole entry E288A): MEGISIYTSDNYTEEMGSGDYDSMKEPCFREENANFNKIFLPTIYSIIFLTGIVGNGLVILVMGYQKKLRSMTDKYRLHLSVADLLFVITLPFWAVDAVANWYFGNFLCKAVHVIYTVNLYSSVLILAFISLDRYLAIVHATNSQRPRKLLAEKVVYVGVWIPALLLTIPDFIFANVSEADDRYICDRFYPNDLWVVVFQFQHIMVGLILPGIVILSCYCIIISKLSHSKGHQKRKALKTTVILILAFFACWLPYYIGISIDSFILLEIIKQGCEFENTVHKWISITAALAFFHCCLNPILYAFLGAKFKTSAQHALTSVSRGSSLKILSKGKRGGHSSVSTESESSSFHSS
# assay procedure: FACS
value kind: pIC50
# reply with the number alone; pIC50 is -log10 of concentration in mol/L

Prompt: Look up pIC50 for this binder: ILRWSRKLPCVS (source: synthetic peptide (Fmoc solid-phase synthesis, HPLC-purified)) [EPI-X4 JM#21]
Completion: 4.06
